Target: EGFR (mutated) 695-1022, T790M, C797S, L858R (Homo sapiens (Human), UniProt P00533, C797S/L858R/T790M)
Sequence (P00533 695-1022 T790M/C797S/L858R): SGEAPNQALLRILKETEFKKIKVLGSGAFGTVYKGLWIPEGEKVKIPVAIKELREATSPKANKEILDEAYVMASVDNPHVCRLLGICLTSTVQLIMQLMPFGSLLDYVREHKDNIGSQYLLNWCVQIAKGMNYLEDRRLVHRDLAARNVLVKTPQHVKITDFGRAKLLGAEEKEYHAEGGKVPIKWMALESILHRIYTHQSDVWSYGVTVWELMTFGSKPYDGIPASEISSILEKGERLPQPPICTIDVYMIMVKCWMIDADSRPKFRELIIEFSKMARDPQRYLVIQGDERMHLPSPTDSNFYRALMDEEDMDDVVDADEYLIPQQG
Experiment: Biochemical EGFR inhibition assay (TR-FRET, poly-GT substrate), EGFR T790M C797S L858R
Settings: read-out: LR_TM_CS (5 μM ATP) IC50; 5 μM ATP
assay.endpoint: IC50 (nM)

Example cases with answers are listed next.
Cc1cc(C(=O)/N=c2\[nH]c3ccccc3n2[C@@H]2C[C@H](O)C[C@H](O)C2)cc(-c2cnn(C)c2)n1 [I-206] = 17.7
CC(=O)N1CCC(c2ccc3c(c2)[nH]/c(=N\C(=O)c2cc(C#N)nc(-c4cnn(C)c4)c2)n3[C@H]2CC[C@@H](O)CC2)CC1 [I-202] = 0.9
COc1ccccc1-c1cc(C(=O)/N=c2\[nH]c3cc(CN4CCOCC4)ccc3n2[C@H]2CCC[C@@H](O)C2)ccn1 [I-148] = 3.3
Cc1cc(C(=O)/N=c2\[nH]c3ccc(CN4CCN(C)CC4)cc3n2C2CCCCC2)cc(-c2cnn(C)c2)n1 [I-224] = 0.5

A = Cn1cc(-c2cc(C(=O)/N=c3\[nH]c4ccccc4n3[C@H]3CC[C@@H](O)CC3)cc(C#N)n2)cn1 [I-136]
B = COc1ccccc1-c1cc(C(=O)/N=c2\[nH]c3ccccc3n2[C@@H]2CC[C@H](O)[C@@H](O)C2)ccn1 [I-198]
C = Cn1cc(-c2cc(C(=O)/N=c3\[nH]c4ccccc4n3[C@@H]3CCC[C@H](O)C3)ccn2)cn1 [I-128]
QUERY: Parameters: sort_field (IC50), sort_dir (desc). List each label, following the requested order.
RESULT: B, C, A
(B: 7.7 nM, C: 4 nM, A: 0.8 nM)

###

Molecular target: EGFR del19 T790M C797S protein in Ba/F3 cells (Homo sapiens, UniProt P00533, C797S/DEL746-750/T790M)
Sequence (P00533 with tags, fused parts or gaps C797S/DEL746-750/T790M limits assumed): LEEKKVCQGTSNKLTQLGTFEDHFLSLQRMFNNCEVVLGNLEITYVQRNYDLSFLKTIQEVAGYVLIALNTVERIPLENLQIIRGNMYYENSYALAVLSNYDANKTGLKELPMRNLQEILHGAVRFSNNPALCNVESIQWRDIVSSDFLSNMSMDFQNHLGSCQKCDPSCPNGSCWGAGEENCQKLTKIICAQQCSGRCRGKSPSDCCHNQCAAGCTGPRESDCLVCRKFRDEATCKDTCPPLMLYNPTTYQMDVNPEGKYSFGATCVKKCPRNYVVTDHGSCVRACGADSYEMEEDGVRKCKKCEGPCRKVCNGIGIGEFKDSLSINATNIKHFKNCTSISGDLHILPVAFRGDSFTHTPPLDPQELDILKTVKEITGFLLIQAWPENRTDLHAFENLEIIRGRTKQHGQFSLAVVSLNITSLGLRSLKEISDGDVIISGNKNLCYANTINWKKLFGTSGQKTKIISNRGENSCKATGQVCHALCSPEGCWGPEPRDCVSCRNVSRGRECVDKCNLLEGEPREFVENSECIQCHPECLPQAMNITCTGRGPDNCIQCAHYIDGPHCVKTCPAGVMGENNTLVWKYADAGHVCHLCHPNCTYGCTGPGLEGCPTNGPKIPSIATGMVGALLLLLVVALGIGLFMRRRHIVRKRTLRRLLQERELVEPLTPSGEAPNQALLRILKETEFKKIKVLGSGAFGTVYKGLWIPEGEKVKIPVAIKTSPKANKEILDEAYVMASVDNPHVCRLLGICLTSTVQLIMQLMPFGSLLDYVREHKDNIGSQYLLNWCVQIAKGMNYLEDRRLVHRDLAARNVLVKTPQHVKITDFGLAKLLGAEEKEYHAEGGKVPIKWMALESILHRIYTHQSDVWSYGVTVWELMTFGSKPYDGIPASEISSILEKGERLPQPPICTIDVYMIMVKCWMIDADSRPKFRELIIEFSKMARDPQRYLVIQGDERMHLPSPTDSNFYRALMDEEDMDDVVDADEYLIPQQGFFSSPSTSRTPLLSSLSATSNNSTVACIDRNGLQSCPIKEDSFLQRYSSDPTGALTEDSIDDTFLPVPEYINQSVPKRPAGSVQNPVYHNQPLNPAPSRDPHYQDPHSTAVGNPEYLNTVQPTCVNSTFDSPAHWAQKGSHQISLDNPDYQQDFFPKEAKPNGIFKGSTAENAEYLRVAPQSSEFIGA
Assay: pEGFR assay (AlphaScreen Surefire, EGFR Tyr1068 phosphorylation)
assay.endpoint: IC50 (nM)

Cn1cc(-c2cc(C(=O)/N=c3\[nH]c4cc(CN5CCCCC5)ccc4n3CC(C)(C)O)ccn2)cn1 = 27
CC(C)(O)Cn1/c(=N/C(=O)c2ccnc(-c3cccnc3)c2)[nH]c2cc(CO)ccc21 = 16
CC(C)(O)Cn1/c(=N/C(=O)c2ccnc(-c3cccc(O)c3)c2)[nH]c2ccccc21 = 12

1 = CNc1ccc2c(c1)[nH]/c(=N\C(=O)c1ccnc(-c3cnn(C)c3)c1)n2CC(C)(C)O
2 = Cn1cc(-c2cc(C(=O)/N=c3\[nH]c4ccccc4n3[C@H]3CC[C@@H](O)CC3)cc(C#N)n2)cn1
3 = Cn1cc(-c2cc(C(=O)/N=c3\[nH]c4ccccc4n3[C@H]3CC[C@@H](O)CC3)cc(CF)n2)cn1
4 = CC(C)(O)Cn1/c(=N/C(=O)c2ccnc(-c3cccnc3)c2)[nH]c2cc(N3CCCCC3)ccc21
5 = Cn1cc(-c2cc(C(=O)/N=c3\[nH]c4ccccc4n3CC(C)(C)O)ccn2)cn1
QUERY: Put these in order: smallest IC50 first, largest last. List each label, following the requested order.
RESULT: 2, 1, 3, 5, 4

###

Target: EGFR del19 T790M C797S protein in Ba/F3 cells (Homo sapiens, UniProt P00533, C797S/DEL746-750/T790M)
Experiment: pEGFR assay (AlphaScreen Surefire, EGFR Tyr1068 phosphorylation)
pIC50: −log10 of the molar value.
assay.endpoint: pIC50

Cc1cc(C(=O)/N=c2\[nH]c3cc(CN4CCOCC4)ccc3n2[C@H]2CC[C@@H](O)CC2)cc(-c2cnn(C)c2)n1 = 8.15
O=C(/N=c1\[nH]c2ccccc2n1[C@H]1CC[C@@H](O)CC1)c1ccnc(-c2ccc(F)cc2F)c1 = 7.92
Cn1cc(-c2cc(C(=O)/N=c3\[nH]c4ccccc4n3[C@H]3CCC[C@H](O)C3)ccn2)cn1 [I-137] = 8.70

A = Cc1ccc2c(c1)[nH]/c(=N\C(=O)c1ccnc(-c3cnn(C)c3)c1)n2CC(C)(C)O
B = Cc1cc(C(=O)/N=c2\[nH]c3ccc(C4CCN(C)CC4)cc3n2C2CCCCC2)cc(-c2cnn(C)c2)n1
C = CN(C)C1CCN(c2ccc3c(c2)[nH]/c(=N\C(=O)c2ccnc(-c4cnn(C)c4)c2)n3CC(C)(C)O)C1 (stereo not shown)
D = Cn1cc(-c2cc(C(=O)/N=c3\[nH]c4cc(NCC5CCOCC5)ccc4n3CC(C)(C)O)ccn2)cn1
QUERY: Parameters: sort_field (pIC50), sort_dir (desc). List each label, following the requested order.
RESULT: B, A, D, C
(B: 8.70, A: 8.05, D: 7.85, C: 7.05)

###

Biological target: EGFR (d746-750 T790M C797S) (Homo sapiens (Human), UniProt P00533, C797S/DEL746-750/T790M)
Sequence (P00533 other isoform, or with tags, fused parts or gaps T790M/C797S/del 1-694/del 746-750 limits assumed): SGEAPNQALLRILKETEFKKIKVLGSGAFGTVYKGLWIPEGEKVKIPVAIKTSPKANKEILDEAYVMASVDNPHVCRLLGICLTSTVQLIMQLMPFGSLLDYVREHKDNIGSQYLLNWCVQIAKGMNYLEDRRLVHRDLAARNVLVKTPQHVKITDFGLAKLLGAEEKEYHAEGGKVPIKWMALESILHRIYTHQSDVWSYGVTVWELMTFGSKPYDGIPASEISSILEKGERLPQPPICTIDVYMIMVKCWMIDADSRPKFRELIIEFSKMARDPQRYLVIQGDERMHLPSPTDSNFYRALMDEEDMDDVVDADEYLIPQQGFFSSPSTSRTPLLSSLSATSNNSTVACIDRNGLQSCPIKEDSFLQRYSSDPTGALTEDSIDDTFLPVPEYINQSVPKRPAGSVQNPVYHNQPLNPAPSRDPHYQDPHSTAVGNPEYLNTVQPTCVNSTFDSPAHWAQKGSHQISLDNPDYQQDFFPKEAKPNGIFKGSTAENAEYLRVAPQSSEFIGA
Test: Biochemical EGFR inhibition assay (TR-FRET, poly-GT substrate), EGFR d746-750 T790M C797S
Details: 5 μM ATP
pIC50: −log10 of the molar value.
assay.endpoint: pIC50

Example cases with answers are listed next.
Cn1cc(-c2cc(C(=O)/N=c3\[nH]c4ccccc4n3[C@H]3CC[C@@H](O)CC3)cc(C#N)n2)cn1 [I-136] = 9.70
Cc1cc(C(=O)/N=c2\[nH]c3ccc(CN4CCN(C)CC4)cc3n2C2CCCCC2)cc(-c2cnn(C)c2)n1 [I-224] = 9.70

P = Cc1cc(C(=O)/N=c2\[nH]c3ccc(CN4CCOCC4)cc3n2[C@H]2CC[C@@H](O)CC2)cc(-c2cnn(C)c2)n1 [I-223]
Q = Cc1cc(C(=O)/N=c2\[nH]c3ccc(CN4CCN(C)CC4)cc3n2[C@H]2CC[C@@H](O)CC2)cc(-c2cnn(C)c2)n1 [I-222]
QUERY: Of P and Q , which shows the smaller pIC50 value? To answer, give the label that identifies your chosen option.
RESULT: P
(P: 9.30, Q: 9.70)

###

Biological target: EGFR (mutated) 695-1022, T790M, C797S, L858R (Homo sapiens (Human), UniProt P00533, C797S/L858R/T790M)
Assay: Biochemical EGFR inhibition assay (TR-FRET, poly-GT substrate), EGFR T790M C797S L858R
Conditions: read-out: LR_TM_CS (5 μM ATP) IC50; 5 μM ATP
pIC50: −log10 of the molar value.
assay.endpoint: pIC50

Cn1cc(-c2cc(C(=O)/N=c3\[nH]c4ccccc4n3[C@H]3CC[C@@H](O)CC3)cc(N)n2)cn1 = 9.52
CC(C)(O)Cn1/c(=N/C(=O)c2ccnc(-c3cccn4cnnc34)c2)[nH]c2ccccc21 = 7.21
Cn1cc(-c2cc(C(=O)/N=c3\[nH]c4ccccc4n3[C@H]3CC[C@@H](O)CC3)cc(CF)n2)cn1 = 8.09
Cc1cc(C(=O)/N=c2\[nH]c3ccc(CN4CCOCC4)cc3n2C2CCCCC2)cc(-c2cnn(C)c2)n1 = 8.70
Cn1cc(-c2cc(C(=O)/N=c3\[nH]c4cc(CN5CCOCC5)ccc4n3[C@H]3CC[C@@H](O)CC3)cc(F)n2)cn1 = 9.10

I = Cn1cc(-c2cc(C(=O)/N=c3\[nH]c4ccccc4n3C3CCC[S+]([O-])C3)ccn2)cn1 (stereo not shown)
II = COc1c(C)cccc1-c1cc(C(=O)/N=c2\[nH]c3ccccc3n2[C@H]2CC[C@@H](O)CC2)ccn1
QUERY: Of I and II , which shows the smaller pIC50 value? To answer, give the label that identifies your chosen option.
RESULT: I
(I: 7.49, II: 7.85)

###

Target: EGFR (mutated) 695-1022, T790M, C797S, L858R (Homo sapiens (Human), UniProt P00533, C797S/L858R/T790M)
Assay: Biochemical EGFR inhibition assay (TR-FRET, poly-GT substrate), EGFR T790M C797S L858R
Settings: read-out: LR_TM_CS (100 μM ATP) IC50; 100 μM ATP
assay.endpoint: IC50 (nM)

1 = Cc1ccc2c(c1)[nH]/c(=N\C(=O)c1ccnc(-c3cccc(CN(C)C)c3)c1)n2[C@H]1CC[C@@H](O)CC1
2 = Cc1ccc2c(c1)[nH]/c(=N\C(=O)c1ccnc(-c3cnn4cccnc34)c1)n2[C@H]1CC[C@@H](O)CC1
3 = Cn1cc(-c2cc(C(=O)/N=c3\[nH]c4ccccc4n3[C@H]3CC[C@@H](O)CC3)cc(C#N)n2)cn1
QUERY: Reorder the list: decreasing IC50. List each label, following the requested order.
RESULT: 3, 1, 2

###

Test system: Ba/F3 cells driven by EGFR mutants
Experiment: Ba/F3 proliferation assay (CellTiter-Glo viability), EGFR mutant alleles
Type: cell-based, murine
Details: Mus musculus, BaF3, Ba/F3 EGFR del19 T790M, read-out: IC50 EGFR del19 T790M
assay.endpoint: IC50 (nM)

Cn1cc(-c2cc(C(=O)/N=c3\[nH]c4ccccc4n3[C@H]3CCC[C@H](O)C3)ccn2)cn1 = 72

I = COc1ccccc1-c1cc(C(=O)/N=c2\[nH]c3cc(C)ccc3n2[C@H]2CC[C@@H](O)CC2)ccn1
II = Cn1cc(-c2cc(C(=O)/N=c3\[nH]c4ccccc4n3C3CCCCC3)ccn2)cn1
III = Cn1cc(-c2cc(C(=O)/N=c3\[nH]c4ccccc4n3[C@H]3CC[C@@H](O)CC3)ccn2)cn1
QUERY: Put these in order: smallest IC50 first, largest last. List each label, following the requested order.
RESULT: III, I, II
(III: 32.9 nM, I: 52.9 nM, II: 169 nM)

# credit: patent US11174245B2
